Experiment: soluble on expression in E. coli; label from the status in PepcDB or PDB records
observable: soluble on expression in E. coli

{"columns": ["sequenceString", "valueReported"],
 "data": [
  ["MGSDKIHHHHHHMKYEIVLKGSYALLKVFLSTGESVVVEPGAMVYMKGPIEVKTSATGGVWKALKRAILGGENFFMNTYISRGESEIGLAPQLPGDIDVIPLKDILYVQSTSFLACDPSVEMDVSFGGLKSFFSGEGIFLLKFIGHGDVAVSSFGGIKSVELQPGEEFTVDTGHVVAFDGTVKWNVRTFGGLKSTLFGGEGLVCTFTGPGRVYIQTRNYPAFVEWIKSLVPRQTGSR", "not soluble"],
  ["MKLEVTPKAQQWFKEETGVQPETGIRFFGKIYGKTPVHDGFSIAMSVEAPDEPMIKENLDGITYFIEETDDWFFKGYDLIVDYDEKNDEPRYQFEANQEDLTK", "not soluble"],
  ["MGSDKIHHHHHHMVQNTFSDFDVSGFWDDSAYSIEEYVEETPTDALIDSIEQELGYKLPASYIELMKQHNGGTPVNCCFPVTEETSGTEYHVEISGIMGIGRSKTYSLGGSFGSRFMIDEWGYPDTGIYVCTCPSAGHEMILLDYSICGPKGEPQVFYVDQEREYQKTFLAKDFETFIRGLVHADVYDTSAQDLISTLETFRTGNFSEVLQAYIKKDLSVNFDRVLRNLFTELTTEKGYFALHADELSYLSYDIQFYLLSINRKIKSKEDFVKHYLPMVAMSDAGITTGGYANFFEDWFDEKIKSKEITKGLLSGFLFTEIYKQKLFERIKQYDK", "not soluble"],
  ["MGSDKIHHHHHHMYLEAFTSHFNSIADSRQSAKVTYPLHDVLFVTLCGVIAGAEGWSEIHDYAAGHHTWFKEKGILTEGVPVDDTIARIISRIEPEQFRLCFANWMRAVHEMSDGHLIAIDGKTLRASYNREDRRSTIHMVNAFACANKVVLGQVKTANKSNEITAIPALLQLLDIEGALVSIDAMGCQTEIARQIVEQGGDYLLAVKVNQSSLHEAVVSAFSEARSNPLDGLVIEKNRGRIEARAYYVIPANQLQDNFPKWMKLNTLGMCLSYRHTKGKEAELTYRYYISSATLDEQLLANSVRGHWGIENSLHWVLDVSMKEDSCQIYQHHGAENWAMLRHISLNMLRAEPSKGSIPAKQKRAWMKPEYLESVLLAGLQLDEF", "not soluble"],
  ["MQKSSLISHRFSFCKVCGGKANGNHFGIQSCRACAAFFRRAANSKWSSMKCTTFGCADMLVPCKPCRLKRCQEQGMSTTNFQFDRDALKRLLVPKSVEKFVGRPESVIFCDMTESTSKTFIDIRPLIEKTSNILKNGAEGPIFGRNQLQKLANGFENYTNEISVKMIKKIGKSETADCWEYYITTTAKWLNYFNGFKLLSHELQVGKYVFFIEIFSK", "not soluble"],
  ["MGSDKIHHHHHHMKITVLYSGNYGERVLNTILEKFAQNIVSIHEIPENLPEYIDDVSEYVPENLKESDLIISVGLFGDINLIVCDIAKKTNAKSIIIESHSPKQVTKGLKSEISDSLNEIKIVFPKPFCSLKPVGDTYIDEFAKYFGSPEIEIIGETIVKSVIVKRNAPCGSTKYVAENLTGYSLNEVEFESGNKLHNYPCLASMDVDNEIGDTILHLAGYKIKEAVKKSLKFSNKILTVTGDCKGFECGFKCYKICPVVKMGENAVEIEKTHVNINNLFCGCCMKCVDICPFNAIKVLNYKI", "not soluble"],
  ["SNAMSKQLLALNIDGALLRSNGKIHQATKDAIEYVKKKGIYVTLVTNRHFRSAQKIAKSLKLDAKLITHSGAYIAEKIDAPFFEKRISDDHTFNIVQVLESYQCNIRLLHEKYSIGNKKKVNSNLLGKALIHPSDPIFYPVQFVESLSDLLMDEPVSAPVIEVYTEHDIQHDITETITKAFPAVDVIRVNDEKLNIVPKGVSKEAGLALVASELGLSMDDVVAIGHQYDDLPMIELAGLGVAMGNAVPEIKRKADWVTRSNDEQGVAYMMKEYFRMQQRKGFLDKFHMKR", "soluble"],
  ["AIAEGEYRLTRSYAVVDITAQVDDSAILEPFACVMARARIGPRTRVGAHSVVGVGVSVGADCCIYHHVTLLNCDIGDRCVIHSGVAIGQDGFGFEVDQQTGKVRKKPQELSVRIGNEVEIGANTCIDRGSWRDTLIEDAVKIDNLVQIGHNVQVGANTFICGQAGVAGSTKIGRYCRFGGRSGAVDHLEIGDHVDVAANSVLTRNAPGHAVYAGFPAMPMREWRHQQVTLRRLSRAGKRQVDVSADDPEFPK", "soluble"],
  ["MQIKTYKIKDICDIKRGRVISKLYIKNNPGEFPVYSSATVNNGEIGRIKDCDLKGEYVTWTTDGAQAGSVFYRNGQFNATNVCGILKVNNDEIYPKFLAYALRLKAPKFVNYACPIPKLMQGTLAEIELDFTSKKIQEKIATILDTFTELSAELSAELSAELSAELRERKKQYVFYSDYLLNPKNWK", "soluble"],
  ["MFPIASRRILLNASVLPLRLCNRNFTTTRISYNVIQDLYLRELKDTKLAPSTLQDAEGNVKPWNPPQKPNLPELELQGPEALKAYTEQNVETAHVAKESEEGESEPIEEDWLVLDDAEETKESH", "not soluble"],
  ["MKCSKCQAEAIYFAKYNGLYLCREHFNDMIEKRVKSEIRNQVDLKKPMVRISVAISGGKDSSVTLYLLHKILSKRRNVELTAFTVDEGISGYRPAGLESAIKLTKMLGVDHSIIRFQDSFGMTLDSIVGADASRIPCSYCGPLRRKLINEMAERQNADYVALGLNLDDYSQSILMNVAKGDYDRLLRMSPQKEAKDGLVRRIAPLRSVLEKEVVLYAVINGIPFDSSWCPYYSRAQRNIFREVVNTLSEYNPSTKFSILKFFERARSDVQRNDKALGRCRICGAPTENDVCSACAAMESLRNERKASESELHAR", "not soluble"]
]}
